Molecular target: Cholinesterase (Homo sapiens, UniProt P06276)
Sequence (P06276 whole entry): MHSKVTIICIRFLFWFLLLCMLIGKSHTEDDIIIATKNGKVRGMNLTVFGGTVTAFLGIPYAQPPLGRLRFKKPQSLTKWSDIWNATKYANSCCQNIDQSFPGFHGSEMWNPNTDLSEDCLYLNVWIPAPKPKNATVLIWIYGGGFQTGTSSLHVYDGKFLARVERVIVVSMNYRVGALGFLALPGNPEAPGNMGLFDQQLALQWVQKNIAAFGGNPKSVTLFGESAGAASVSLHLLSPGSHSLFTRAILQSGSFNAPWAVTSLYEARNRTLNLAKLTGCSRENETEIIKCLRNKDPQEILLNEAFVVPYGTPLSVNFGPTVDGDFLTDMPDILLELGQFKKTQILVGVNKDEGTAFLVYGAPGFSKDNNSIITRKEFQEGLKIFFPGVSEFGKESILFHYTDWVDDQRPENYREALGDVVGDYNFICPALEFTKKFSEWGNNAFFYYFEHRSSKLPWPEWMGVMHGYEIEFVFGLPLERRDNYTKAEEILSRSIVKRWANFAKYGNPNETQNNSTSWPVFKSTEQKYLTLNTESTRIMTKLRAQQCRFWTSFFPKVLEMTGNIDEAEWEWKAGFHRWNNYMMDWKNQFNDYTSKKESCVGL
Assay: Inhibition of human plasma BuchE by Ellman's method
Format: cell-free
Response field label: string, one of true (IC50 strictly below 400 nM) or false.

[[record]]
molecule = "CCCCCCc1ccc(C(=O)O[C@@H]2CO[C@H]3[C@@H]2OC[C@@H]3OC(=O)NCc2ccccc2)cc1"
labelclass = "false"

[[record]]
molecule = "CCCCC(=O)O[C@@H]1CO[C@H]2[C@@H]1OC[C@@H]2OC(=O)NCc1ccccc1"
labelclass = "false"

[[record]]
molecule = "O=C(NCc1ccccc1)O[C@H]1CO[C@H]2[C@@H]1OC[C@H]2OC(=O)c1ccncc1"
labelclass = "true"

[[record]]
molecule = "CCC(C)NC(=O)O[C@H]1CO[C@H]2[C@@H]1OC[C@H]2OC(=O)c1ccccc1 (stereo partly specified)"
labelclass = "true"

[[record]]
molecule = "CC(=O)O[C@@H]1CO[C@H]2[C@@H]1OC[C@@H]2OC(=O)NCc1ccccc1"
labelclass = "false"

[[record]]
molecule = "O=C(NC1CCCCC1)O[C@H]1CO[C@H]2[C@@H]1OC[C@H]2O[N+](=O)[O-]"
labelclass = "false"

[[record]]
molecule = "O=C(NCc1ccccc1)O[C@H]1CO[C@H]2[C@@H]1OC[C@H]2OC(=O)OS(=O)(=O)C(F)(F)F"
labelclass = "true"

[[record]]
molecule = "CCC(=O)O[C@@H]1CO[C@H]2[C@@H]1OC[C@@H]2OC(=O)NCc1ccccc1"
labelclass = "false"

[[record]]
molecule = "O=C(NCc1ccccc1)O[C@H]1CO[C@H]2[C@@H]1OC[C@H]2O"
labelclass = "false"

[[record]]
molecule = "CCNC(=O)O[C@H]1CO[C@H]2[C@@H]1OC[C@H]2O[N+](=O)[O-]"
labelclass = "false"

[[record]]
molecule = "O=C(NCc1ccccc1)O[C@H]1CO[C@H]2[C@@H]1OC[C@H]2OC(=O)c1ccc2ccccc2c1"
labelclass = "true"

[[record]]
molecule = "O=C(NCc1ccccc1)O[C@H]1CO[C@H]2[C@@H]1OC[C@H]2O[N+](=O)[O-]"
labelclass = "true"

[[record]]
molecule = "O=C(/C=C/c1ccccc1)O[C@@H]1CO[C@H]2[C@@H]1OC[C@@H]2OC(=O)NCc1ccccc1"
labelclass = "true"

[[record]]
molecule = "CNC(=O)O[C@H]1CO[C@H]2[C@@H]1OC[C@H]2OC(=O)c1ccccc1"
labelclass = "false"

[[record]]
molecule = "O=C(NCc1ccccc1)O[C@H]1CO[C@H]2[C@@H]1OC[C@H]2OC(=O)C1CC1"
labelclass = "true"

[[record]]
molecule = "CNC(=O)O[C@H]1CO[C@H]2[C@@H]1OC[C@H]2O[N+](=O)[O-]"
labelclass = "false"

